Listing of entries alongside the reported half-life.
method: Half life in cynomolgus monkey liver microsomes
Type: ADME, Macaca fascicularis, microsome

Please review the following examples before continuing.
Cc1cnc(-c2ccc([C@H](C)N3CC[C@](CC(C)(C)O)(c4ccccc4)OC3=O)cc2)cn1
38 min
C[C@@H](c1ccc(-c2ccc(F)cn2)cc1)N1CC[C@](CC(C)(C)O)(c2ccccc2)OC1=O
> 45 min

Give recorded half-life. `C[C@@H](c1ccc(-c2ccc(=O)n(C)c2)cc1)N1CC[C@](CC(C)(C)O)(c2ccccc2)OC1=O`
> 90 min

Quickly give me recorded half-life for `Cc1ccc(-c2ccc([C@H](C)N3CC[C@](CC(C)(C)O)(c4ccccc4)OC3=O)cc2)nn1`
> 45 min

For the molecule `C[C@@H](c1ccc(-c2ccc(C#N)cn2)cc1)N1CC[C@](CC(C)(C)O)(c2ccccc2)OC1=O` , give its measured half-life value.
> 90 min

Fill in reported half-life for this entry: `C[C@@H](c1ccc(-c2ccn(C)c(=O)c2)cc1)N1CC[C@](CC(C)(C)O)(c2ccccc2)OC1=O`
> 90 min

State its half-life: `Cc1ncc(-c2ccc([C@H](C)N3CC[C@](CC(C)(C)O)(c4ccccc4)OC3=O)cc2)cn1`
> 90 min

Given the molecule `Cc1cc(-c2ccc([C@H](C)N3CC[C@](CC(C)(C)O)(c4ccccc4)OC3=O)cc2)cc(C)n1` , write its reported half-life.
38 min

// fetch half-life given entry `C[C@@H](c1ccc(-c2ccc(C(N)=O)cn2)cc1)N1CC[C@](CC(C)(C)O)(c2ccccc2)OC1=O`
> 45 min

For `C[C@@H](c1ccc(-c2ccc3ncnn3c2)cc1)N1CC[C@](CC(C)(C)O)(c2ccccc2)OC1=O` , write its half-life.
> 45 min

Supply reported half-life belonging to this molecule: `C[C@@H](c1ccc(-c2ccc(=O)n(C)n2)cc1)N1CC[C@](CC(C)(C)O)(c2ccccc2)OC1=O`
> 45 min
